Cited source: the supplement of paper PMC10724198

Tested on: Saccharomyces cerevisiae;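 note: PSI is a weighted mean of sequencing reads over stability bins, variants kept only with over 10 reads, mCherry proximal and sfGFP distal, peptide attached via GGGS linker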
Assay: protein stability index of tFT-peptide fusion (C-terminal peptide) (PSI (0-1 scale)); higher = more stable (slower turnover)
Conditions: genetic background: das1 deletion; temperature: 37 C
measuredProperty: protein stability index

[[record]]
inputsequence = "WFCCAQRGVIVG"
measuredproperty = "protein stability index"
measuredvalue = 0.502

[[record]]
inputsequence = "IHIFIIFRVQWK"
measuredproperty = "protein stability index"
measuredvalue = 0.272

[[record]]
inputsequence = "IRDGPWKRVLVV"
measuredproperty = "protein stability index"
measuredvalue = 0.642

[[record]]
inputsequence = "VRVLPFCWCIVR"
measuredproperty = "protein stability index"
measuredvalue = 0.288

[[record]]
inputsequence = "MRGPAWVCVLYS"
measuredproperty = "protein stability index"
measuredvalue = 0.693

[[record]]
inputsequence = "YVCVVSVLLGLL"
measuredproperty = "protein stability index"
measuredvalue = 0.441

[[record]]
inputsequence = "ESSRNILLWRTI"
measuredproperty = "protein stability index"
measuredvalue = 0.755

[[record]]
inputsequence = "GVVCCVVVGRMG"
measuredproperty = "protein stability index"
measuredvalue = 0.665

[[record]]
inputsequence = "PVGLMKRFRLFI"
measuredproperty = "protein stability index"
measuredvalue = 0.716

[[record]]
inputsequence = "VLFLLLFVSRVA"
measuredproperty = "protein stability index"
measuredvalue = 0.453

[[record]]
inputsequence = "AFTFLLCWLFGV"
measuredproperty = "protein stability index"
measuredvalue = 0.627

[[record]]
inputsequence = "EGVVLLVDCVAT"
measuredproperty = "protein stability index"
measuredvalue = 0.514

[[record]]
inputsequence = "VRNKFSYVLRLN"
measuredproperty = "protein stability index"
measuredvalue = 0.747

[[record]]
inputsequence = "VCFFSSSCFLLV"
measuredproperty = "protein stability index"
measuredvalue = 0.623

[[record]]
inputsequence = "ALSRFFSVFLLV"
measuredproperty = "protein stability index"
measuredvalue = 0.677

[[record]]
inputsequence = "YFFFLFFLLPPF"
measuredproperty = "protein stability index"
measuredvalue = 0.505

[[record]]
inputsequence = "FPRPLPVPLAVS"
measuredproperty = "protein stability index"
measuredvalue = 0.29

[[record]]
inputsequence = "GREGETGSKAGR"
measuredproperty = "protein stability index"
measuredvalue = 0.728

[[record]]
inputsequence = "YSGRYRTLVRCW"
measuredproperty = "protein stability index"
measuredvalue = 0.443

[[record]]
inputsequence = "LSVSEILAVKCG"
measuredproperty = "protein stability index"
measuredvalue = 0.592

[[record]]
inputsequence = "GVAVVWVGLGVT"
measuredproperty = "protein stability index"
measuredvalue = 0.474

[[record]]
inputsequence = "QITIYPIPLARF"
measuredproperty = "protein stability index"
measuredvalue = 0.88

[[record]]
inputsequence = "SLICLSVGVLLR"
measuredproperty = "protein stability index"
measuredvalue = 0.337

[[record]]
inputsequence = "GGWRVLHAWVAV"
measuredproperty = "protein stability index"
measuredvalue = 0.687

[[record]]
inputsequence = "LMWVFPRVVWLY"
measuredproperty = "protein stability index"
measuredvalue = 0.321

[[record]]
inputsequence = "AVSFVTLSIMVM"
measuredproperty = "protein stability index"
measuredvalue = 0.163

[[record]]
inputsequence = "RLHCFSPILCPI"
measuredproperty = "protein stability index"
measuredvalue = 0.596

[[record]]
inputsequence = "AVLFAPPLSSNF"
measuredproperty = "protein stability index"
measuredvalue = 0.773

[[record]]
inputsequence = "GCLGYTLSCFTY"
measuredproperty = "protein stability index"
measuredvalue = 0.626

[[record]]
inputsequence = "YLFFHMVVLVVV"
measuredproperty = "protein stability index"
measuredvalue = 0.182

[[record]]
inputsequence = "VYFRYWLLVVVF"
measuredproperty = "protein stability index"
measuredvalue = 0.215

[[record]]
inputsequence = "LLLRQVFSLGVF"
measuredproperty = "protein stability index"
measuredvalue = 0.674

[[record]]
inputsequence = "PRHVLWLRRLLF"
measuredproperty = "protein stability index"
measuredvalue = 0.782

[[record]]
inputsequence = "ASVCLNVIYQLV"
measuredproperty = "protein stability index"
measuredvalue = 0.471

[[record]]
inputsequence = "VNILFCLFFLLV"
measuredproperty = "protein stability index"
measuredvalue = 0.564

[[record]]
inputsequence = "FCTSSRLLYCSA"
measuredproperty = "protein stability index"
measuredvalue = 0.319

[[record]]
inputsequence = "RLINCIYVLMLP"
measuredproperty = "protein stability index"
measuredvalue = 0.606

[[record]]
inputsequence = "RKVWSLCWFVHL"
measuredproperty = "protein stability index"
measuredvalue = 0.65

[[record]]
inputsequence = "NDVGGYFYVCSE"
measuredproperty = "protein stability index"
measuredvalue = 0.714

[[record]]
inputsequence = "PDPIFGEWVYMV"
measuredproperty = "protein stability index"
measuredvalue = 0.756

[[record]]
inputsequence = "LWFRCVRMQACR"
measuredproperty = "protein stability index"
measuredvalue = 0.51

[[record]]
inputsequence = "ERRWVLVAWRFK"
measuredproperty = "protein stability index"
measuredvalue = 0.619

[[record]]
inputsequence = "PFAFLSLVLLLP"
measuredproperty = "protein stability index"
measuredvalue = 0.518

[[record]]
inputsequence = "SYVVVFVIFCVG"
measuredproperty = "protein stability index"
measuredvalue = 0.342

[[record]]
inputsequence = "RPPPAANFTRSS"
measuredproperty = "protein stability index"
measuredvalue = 0.698

[[record]]
inputsequence = "WRGALHPTPVAA"
measuredproperty = "protein stability index"
measuredvalue = 0.419

[[record]]
inputsequence = "FLLYSILLAFLL"
measuredproperty = "protein stability index"
measuredvalue = 0.546

[[record]]
inputsequence = "FMSAGVSWIFFV"
measuredproperty = "protein stability index"
measuredvalue = 0.75

[[record]]
inputsequence = "KVFWRPAWVAEV"
measuredproperty = "protein stability index"
measuredvalue = 0.733

[[record]]
inputsequence = "SYMWLVEVLLFI"
measuredproperty = "protein stability index"
measuredvalue = 0.386

[[record]]
inputsequence = "GSVGFICCVVVV"
measuredproperty = "protein stability index"
measuredvalue = 0.515

[[record]]
inputsequence = "GLVWSKCFFIVG"
measuredproperty = "protein stability index"
measuredvalue = 0.711

[[record]]
inputsequence = "ALCPPLPMLVVA"
measuredproperty = "protein stability index"
measuredvalue = 0.0912

[[record]]
inputsequence = "DLFVFFVFHFFL"
measuredproperty = "protein stability index"
measuredvalue = 0.589

[[record]]
inputsequence = "RGYATTALHWVS"
measuredproperty = "protein stability index"
measuredvalue = 0.739

[[record]]
inputsequence = "GQRIKWGPIYLT"
measuredproperty = "protein stability index"
measuredvalue = 0.444

[[record]]
inputsequence = "YGHLPLLVLFCV"
measuredproperty = "protein stability index"
measuredvalue = 0.541

[[record]]
inputsequence = "VISGFVLVFRVR"
measuredproperty = "protein stability index"
measuredvalue = 0.591

[[record]]
inputsequence = "VSRVHIRIEGNH"
measuredproperty = "protein stability index"
measuredvalue = 0.722

[[record]]
inputsequence = "DSSRRKRLICMN"
measuredproperty = "protein stability index"
measuredvalue = 0.731

[[record]]
inputsequence = "CRLFFVFVFFWW"
measuredproperty = "protein stability index"
measuredvalue = 0.322

[[record]]
inputsequence = "LPLVFYCFLLHS"
measuredproperty = "protein stability index"
measuredvalue = 0.518

[[record]]
inputsequence = "LLLLFPSPLFIR"
measuredproperty = "protein stability index"
measuredvalue = 0.303

[[record]]
inputsequence = "VCFCFLRFLSLL"
measuredproperty = "protein stability index"
measuredvalue = 0.716

[[record]]
inputsequence = "GVVRKLCHWVVA"
measuredproperty = "protein stability index"
measuredvalue = 0.525

[[record]]
inputsequence = "LFFSPRRLSPPT"
measuredproperty = "protein stability index"
measuredvalue = 0.778

[[record]]
inputsequence = "FLLCGVFFFFFV"
measuredproperty = "protein stability index"
measuredvalue = 0.309

[[record]]
inputsequence = "DILCGRCMIVGA"
measuredproperty = "protein stability index"
measuredvalue = 0.604

[[record]]
inputsequence = "IILAIRLLVDTL"
measuredproperty = "protein stability index"
measuredvalue = 0.266

[[record]]
inputsequence = "FFCLFCLSCWVL"
measuredproperty = "protein stability index"
measuredvalue = 0.444

[[record]]
inputsequence = "GVSRRWFSLRCI"
measuredproperty = "protein stability index"
measuredvalue = 0.75

[[record]]
inputsequence = "VGEQEVVGIGGV"
measuredproperty = "protein stability index"
measuredvalue = 0.735

[[record]]
inputsequence = "QERKILGRIKQA"
measuredproperty = "protein stability index"
measuredvalue = 0.708

[[record]]
inputsequence = "TVGVGWVWVGVL"
measuredproperty = "protein stability index"
measuredvalue = 0.649

[[record]]
inputsequence = "GGTGGAGSRGQI"
measuredproperty = "protein stability index"
measuredvalue = 0.724

[[record]]
inputsequence = "VHTAIFTSWRRL"
measuredproperty = "protein stability index"
measuredvalue = 0.772

[[record]]
inputsequence = "LSRFRYFVLTSL"
measuredproperty = "protein stability index"
measuredvalue = 0.698

[[record]]
inputsequence = "RLLRGDRMVICS"
measuredproperty = "protein stability index"
measuredvalue = 0.615

[[record]]
inputsequence = "LRRVHRIKLQVC"
measuredproperty = "protein stability index"
measuredvalue = 0.477

[[record]]
inputsequence = "SVVWIRFVGVRV"
measuredproperty = "protein stability index"
measuredvalue = 0.529

[[record]]
inputsequence = "VRFPVFFIILFL"
measuredproperty = "protein stability index"
measuredvalue = 0.235

[[record]]
inputsequence = "VIGLLSYFLVYL"
measuredproperty = "protein stability index"
measuredvalue = 0.609

